# experiment_summary: Cytotoxicity against human CCRF-CEM cells
# Assay type: cell-based
# condition_notes: read-out: ID50 (the source's name)
*1 amine or outer side, *2 acyl side, *3 side chain or, on linkers, in order; H or OH if unused. Where a SMILES comes first, the peptide text is derived from it. Bridges are numbered along the chain shown (N, C = ends). Roman numbers before positions name the chains, in order. [ ]: non-standard residue; d: D form. Actinocin(9to1) = Cc1c2oc3c(C)ccc(C(=O)[*:1])c3nc-2c(C(=O)[*:2])c(N)c1=O; NMeV = CN[C@H](C(=O)O)C(C)C; Sar = CNCC(=O)O
property_label: log10 of CC50 (log10 of the value in µg/mL)
Parameter value (number): base-10 log of CC50 in µg/mL.

Prompt: Item `Cc1c2oc3c(C)c(NCc4ccc(Cl)c(Cl)c4)cc(C(=O)N[C@@H]4C(=O)N[C@H](C(C)C)C(=O)N5CCC[C@H]5C(=O)N(C)CC(=O)N(C)[C@@H](C(C)C)C(=O)O[C@@H]4C)c3nc-2c(C(=O)N[C@@H]2C(=O)N[C@H](C(C)C)C(=O)N3CCC[C@H]3C(=O)N(C)CC(=O)N(C)[C@@H](C(C)C)C(=O)O[C@@H]2C)c(N)c1=O` has what recorded log10 of CC50?
Response: -0.66

Prompt: Same again, this time with `Cc1c2oc3c(C)c(N)cc(C(=O)N[C@@H]4C(=O)N[C@H](C(C)C)C(=O)N5CCC[C@H]5C(=O)N(C)CC(=O)N(C)[C@@H](C(C)C)C(=O)O[C@@H]4C)c3nc-2c(C(=O)N[C@@H]2C(=O)N[C@H](C(C)C)C(=O)N3CCC[C@H]3C(=O)N(C)CC(=O)N(C)[C@@H](C(C)C)C(=O)O[C@@H]2C)c(N)c1=O`
Response: -1.07

Prompt: And what about the compound `Cc1c2oc3c(C)c(NCc4ccc[nH]4)cc(C(=O)N[C@@H]4C(=O)N[C@H](C(C)C)C(=O)N5CCC[C@H]5C(=O)N(C)CC(=O)N(C)[C@@H](C(C)C)C(=O)O[C@@H]4C)c3nc-2c(C(=O)N[C@@H]2C(=O)N[C@H](C(C)C)C(=O)N3CCC[C@H]3C(=O)N(C)CC(=O)N(C)[C@@H](C(C)C)C(=O)O[C@@H]2C)c(N)c1=O` ?
Response: -0.59

Prompt: How about this compound: `Cc1c2oc3c(C)c(NCc4ccc(C(=O)O)cc4)cc(C(=O)N[C@@H]4C(=O)N[C@H](C(C)C)C(=O)N5CCC[C@H]5C(=O)N(C)CC(=O)N(C)[C@@H](C(C)C)C(=O)O[C@@H]4C)c3nc-2c(C(=O)N[C@@H]2C(=O)N[C@H](C(C)C)C(=O)N3CCC[C@H]3C(=O)N(C)CC(=O)N(C)[C@@H](C(C)C)C(=O)O[C@@H]2C)c(N)c1=O`
Response: -0.59

Prompt: Queued: `CCCCCCCCNc1cc(C(=O)N[C@@H]2C(=O)N[C@H](C(C)C)C(=O)N3CCC[C@H]3C(=O)N(C)CC(=O)N(C)[C@@H](C(C)C)C(=O)O[C@@H]2C)c2nc3c(C(=O)N[C@@H]4C(=O)N[C@H](C(C)C)C(=O)N5CCC[C@H]5C(=O)N(C)CC(=O)N(C)[C@@H](C(C)C)C(=O)O[C@@H]4C)c(N)c(=O)c(C)c-3oc2c1C`
Response: -0.57

Prompt: Please give the result for `Cc1c2oc3c(C)c(NCc4cccc(Oc5ccccc5)c4)cc(C(=O)N[C@@H]4C(=O)N[C@H](C(C)C)C(=O)N5CCC[C@H]5C(=O)N(C)CC(=O)N(C)[C@@H](C(C)C)C(=O)O[C@@H]4C)c3nc-2c(C(=O)N[C@@H]2C(=O)N[C@H](C(C)C)C(=O)N3CCC[C@H]3C(=O)N(C)CC(=O)N(C)[C@@H](C(C)C)C(=O)O[C@@H]2C)c(N)c1=O` too.
Response: -0.55

Prompt: Subsequent entry: `Cc1c2oc3c(C)c(NCc4ccccn4)cc(C(=O)N[C@@H]4C(=O)N[C@H](C(C)C)C(=O)N5CCC[C@H]5C(=O)N(C)CC(=O)N(C)[C@@H](C(C)C)C(=O)O[C@@H]4C)c3nc-2c(C(=O)N[C@@H]2C(=O)N[C@H](C(C)C)C(=O)N3CCC[C@H]3C(=O)N(C)CC(=O)N(C)[C@@H](C(C)C)C(=O)O[C@@H]2C)c(N)c1=O`
Response: -0.59

Prompt: What do you get for `Cc1c2oc3c(C)c(NCc4ccccc4)cc(C(=O)N[C@@H]4C(=O)N[C@H](C(C)C)C(=O)N5CCC[C@H]5C(=O)N(C)CC(=O)N(C)[C@@H](C(C)C)C(=O)O[C@@H]4C)c3nc-2c(C(=O)N[C@@H]2C(=O)N[C@H](C(C)C)C(=O)N3CCC[C@H]3C(=O)N(C)CC(=O)N(C)[C@@H](C(C)C)C(=O)O[C@@H]2C)c(N)c1=O` ?
Response: -0.60

Prompt: Do the same for `Cc1c2oc3c(C)c(NCc4ccco4)cc(C(=O)N[C@@H]4C(=O)N[C@H](C(C)C)C(=O)N5CCC[C@H]5C(=O)N(C)CC(=O)N(C)[C@@H](C(C)C)C(=O)O[C@@H]4C)c3nc-2c(C(=O)N[C@@H]2C(=O)N[C@H](C(C)C)C(=O)N3CCC[C@H]3C(=O)N(C)CC(=O)N(C)[C@@H](C(C)C)C(=O)O[C@@H]2C)c(N)c1=O` please
Response: -0.59

Prompt: Moving on to `Cc1c2oc3c(C)c(NCc4ccc(C(F)(F)F)cc4)cc(C(=O)N[C@@H]4C(=O)N[C@H](C(C)C)C(=O)N5CCC[C@H]5C(=O)N(C)CC(=O)N(C)[C@@H](C(C)C)C(=O)O[C@@H]4C)c3nc-2c(C(=O)N[C@@H]2C(=O)N[C@H](C(C)C)C(=O)N3CCC[C@H]3C(=O)N(C)CC(=O)N(C)[C@@H](C(C)C)C(=O)O[C@@H]2C)c(N)c1=O`
Response: -0.59

Prompt: And for Cc1c2oc3c(C)ccc(C(=O)N[C@@H]4C(=O)N[C@H](C(C)C)C(=O)N5CCC[C@H]5C(=O)N(C)CC(=O)N(C)[C@@H](C(C)C)C(=O)O[C@@H]4C)c3nc-2c(C(=O)N[C@@H]2C(=O)N[C@H](C(C)C)C(=O)N3CCC[C@H]3C(=O)N(C)CC(=O)N(C)[C@@H](C(C)C)C(=O)O[C@@H]2C)c(N)c1=O [DACTINOMYCIN] (I: T[dV]P[Sar][NMeV] / II: T[dV]P[Sar][NMeV]; ester I:1-I:C, II:1-II:C; linker I:N-II:N via Actinocin(9to1)) ?
Response: -2.00
